System: plasma protein
Assay: Plasma protein binding by ultrafiltration
Conditions: 10 μM, room temperature
readout: Protein binding (% free)

Here is how some compounds turned out for Protein binding (% free).
Which measured Protein binding (% free) value corresponds to C[C@]1(CS(=O)(=O)N2CC=C(C#Cc3ccc(Cl)cc3)CC2)NC(=O)NC1=O [reference compound] ?
1.75

Which measured Protein binding (% free) value corresponds to Cc1ccc(C#CC2=CCN(S(=O)(=O)C[C@@]3(C)NC(=O)NC3=O)CC2)cc1 [reference compound] ?
2.25

I: CCc1ncc(C#CC2=CCN(S(=O)(=O)C[C@@]3(C)NC(=O)NC3=O)CC2)cn1.O=C(O)C(F)(F)F
II: C[C@]1(CS(=O)(=O)N2CC=C(C#Cc3cnc(C4CC4)nc3)CC2)NC(=O)NC1=O
// compare measured Protein binding (% free) between I and II ; output the lower one # respond with the chosen item's label
II
(II: 18 % free, I: 47 % free)

* * *

Biological target: hMMP8 (Homo sapiens)
Sequence (P22894 101-467): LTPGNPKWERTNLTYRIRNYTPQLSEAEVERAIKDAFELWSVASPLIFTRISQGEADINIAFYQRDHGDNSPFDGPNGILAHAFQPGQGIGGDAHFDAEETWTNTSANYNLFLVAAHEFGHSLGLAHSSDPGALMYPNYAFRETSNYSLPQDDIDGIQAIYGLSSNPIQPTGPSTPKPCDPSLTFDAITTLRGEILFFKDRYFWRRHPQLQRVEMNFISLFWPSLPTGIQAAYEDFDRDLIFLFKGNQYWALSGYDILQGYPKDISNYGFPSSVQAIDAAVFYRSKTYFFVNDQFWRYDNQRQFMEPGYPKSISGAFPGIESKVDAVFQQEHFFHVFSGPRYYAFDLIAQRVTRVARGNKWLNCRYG
Test: Isolated enzyme assay MMP8
readout: IC50 (nM)

Here is how some molecules turned out for IC50.
Which measured IC50 value corresponds to CCc1ncc(C#CC2=CCN(S(=O)(=O)C[C@@]3(C)NC(=O)NC3=O)CC2)cn1.O=C(O)C(F)(F)F [Example 5, trifluoroacetate] ?
1140

Which measured IC50 value corresponds to "C[C@]1(CS(=O)(=O)N2CC=C(C#Cc3cnc(C(F)(F)F)nc3)CC2)NC(=O)NC1=O" ?
547

A: C[C@]1(CS(=O)(=O)N2CC=C(C#Cc3ccc(Cl)cc3)CC2)NC(=O)NC1=O [reference compound]
B: C[C@]1(CS(=O)(=O)N2CC=C(C#Cc3cnc(C4CC4)nc3)CC2)NC(=O)NC1=O
C: Cc1ccc(C#CC2=CCN(S(=O)(=O)C[C@@]3(C)NC(=O)NC3=O)CC2)cc1 [reference compound]
Could you please order the items by IC50, going from the lowest number to the highest? Write the labels in rank order as requested.
A, C, B

* * *

Target: Recombinant human MMP9 catalytic domain (Homo sapiens, UniProt P14780)
Sequence (P14780 with tags, fused parts or gaps DEL216-390 limits assumed): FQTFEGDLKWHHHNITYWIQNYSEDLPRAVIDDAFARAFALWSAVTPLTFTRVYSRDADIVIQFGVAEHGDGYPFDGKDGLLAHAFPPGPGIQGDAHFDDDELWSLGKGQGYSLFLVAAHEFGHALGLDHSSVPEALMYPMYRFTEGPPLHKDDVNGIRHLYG
Assay: Isolated enzyme assay MMP9
Details: read-out: hMMP9 IC50
readout: IC50 (nM)

Here is how some compounds turned out for IC50.
Which measured IC50 value corresponds to Cc1ccc(C#CC2=CCN(S(=O)(=O)C[C@@]3(C)NC(=O)NC3=O)CC2)cc1 [reference compound] ?
34

Which measured IC50 value corresponds to C[C@]1(CS(=O)(=O)N2CC=C(C#Cc3cnc(C(F)(F)F)nc3)CC2)NC(=O)NC1=O [Example 3] ?
5

Which measured IC50 value corresponds to C[C@]1(CS(=O)(=O)N2CC=C(C#Cc3ccc(Cl)cc3)CC2)NC(=O)NC1=O [reference compound] ?
9

P: C[C@]1(CS(=O)(=O)N2CC=C(C#Cc3cnc(C4CC4)nc3)CC2)NC(=O)NC1=O [Example 1]
Q: CCc1ncc(C#CC2=CCN(S(=O)(=O)C[C@@]3(C)NC(=O)NC3=O)CC2)cn1.O=C(O)C(F)(F)F [Example 5, trifluoroacetate]
// compare measured IC50 between P and Q ; output the lower one # respond with the chosen item's label
P

* * *

Target: Recombinant human MMP19 catalytic domain (Homo sapiens, UniProt Q99542)
Construct: Recombinant human MMP19 catalytic domain; made in house
Sequence (Q99542 98-256 limits assumed): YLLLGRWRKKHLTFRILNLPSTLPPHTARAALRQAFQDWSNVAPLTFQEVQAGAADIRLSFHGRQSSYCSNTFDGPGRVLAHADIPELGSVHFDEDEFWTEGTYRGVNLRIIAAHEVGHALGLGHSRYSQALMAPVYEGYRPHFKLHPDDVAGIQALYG
Assay: Isolated enzyme assay MMP19
Type: biochemical
Details: read-out: hMMP19 IC50
readout: IC50 (µM)

P: Cc1ccc(C#CC2=CCN(S(=O)(=O)C[C@@]3(C)NC(=O)NC3=O)CC2)cc1 [reference compound]
Q: C[C@]1(CS(=O)(=O)N2CC=C(C#Cc3ccc(Cl)cc3)CC2)NC(=O)NC1=O [reference compound]
R: C[C@]1(CS(=O)(=O)N2CC=C(C#Cc3cnc(C(F)(F)F)nc3)CC2)NC(=O)NC1=O
Please rank these molecules by IC50 in descending order. Write the labels in rank order as requested.
R, Q, P
(R: 7.9 µM, Q: 3.98 µM, P: 1.97 µM)

* * *

Molecular target: Recombinant human MMP 12 catalytic domain (Homo sapiens, UniProt P39900)
Construct: Recombinant human MMP 12 catalytic domain
Sequence (P39900 106-263 limits assumed): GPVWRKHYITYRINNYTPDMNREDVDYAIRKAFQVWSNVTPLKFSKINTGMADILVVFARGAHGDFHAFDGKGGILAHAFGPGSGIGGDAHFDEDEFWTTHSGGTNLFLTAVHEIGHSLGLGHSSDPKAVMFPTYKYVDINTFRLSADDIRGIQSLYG
Assay: Isolated enzyme assay MMP12
Conditions: read-out: hMMP12 IC50
readout: IC50 (nM)

Please provide the recorded IC50 for "C[C@]1(CS(=O)(=O)N2CC=C(C#Cc3cnc(C(F)(F)F)nc3)CC2)NC(=O)NC1=O" , tested on Recombinant human MMP 12 catalytic domain (Homo sapiens, UniProt P39900).
6

1: Cc1ccc(C#CC2=CCN(S(=O)(=O)C[C@@]3(C)NC(=O)NC3=O)CC2)cc1 [reference compound]
2: CCc1ncc(C#CC2=CCN(S(=O)(=O)C[C@@]3(C)NC(=O)NC3=O)CC2)cn1.O=C(O)C(F)(F)F [Example 5, trifluoroacetate]
3: C[C@]1(CS(=O)(=O)N2CC=C(C#Cc3cnc(C4CC4)nc3)CC2)NC(=O)NC1=O
4: C[C@]1(CS(=O)(=O)N2CC=C(C#Cc3ccc(Cl)cc3)CC2)NC(=O)NC1=O [reference compound]
Descending sort on IC50 required. Write the labels in rank order as requested.
2, 3, 1, 4

* * *

Molecular target: Recombinant human MMP 14 catalytic domain (Homo sapiens, UniProt P50281)
Construct: Recombinant human MMP 14 catalytic domain
Test: Isolated enzyme assay MMP14
Conditions: read-out: hMMP14 IC50
readout: IC50

Which measured IC50 value corresponds to CCc1ncc(C#CC2=CCN(S(=O)(=O)C[C@@]3(C)NC(=O)NC3=O)CC2)cn1.O=C(O)C(F)(F)F [Example 5, trifluoroacetate] ?
> 10 µM

Which measured IC50 value corresponds to "C[C@]1(CS(=O)(=O)N2CC=C(C#Cc3cnc(C4CC4)nc3)CC2)NC(=O)NC1=O" ?
> 10 µM

***
Which measured IC50 value corresponds to "C[C@]1(CS(=O)(=O)N2CC=C(C#Cc3cnc(C(F)(F)F)nc3)CC2)NC(=O)NC1=O" ?
> 10 µM
